# Lookup of reported YAP1 (% UTC) keyed by entry
- Tested on: Yap1 mRNA
- protocol_details: Antisense inhibition of human Yap1 in SNU-449 cells by modified oligonucleotides, single dose (Example 5, RTS36584)
- Type: cell-based
- assay_setup: Table 44 experiment; SNU-449 cells, 10,000 cells per well, free uptake, 2,000 nM, approximately 48 hours; RTS36584; Yap1 mRNA normalized to RIBOGREEN, relative to untreated control cells
Strand notation (5' to 3'): a small letter for the sugar, then the base; units joined by * are phosphorothioate-linked, units joined directly phosphodiester-linked; [ ] holds rarer units or linkages, { } end groups; capitals alone tell only the bases. e = 2'-O-(2-methoxyethyl) (MOE); k = constrained ethyl (cEt); [5mC] = 5-methylcytosine; d = 2'-deoxy (DNA)
measured_property: YAP1 (% UTC)

* 1198508 (k[5mC]*kT*dT*dA*dT*dA*dT*dG*dG*dT*dT*eT*kT*eG*kT*eG; antisense) [Compound 1198508] | 22
* 1198891 (kA*kT*dT*dG*dT*d[5mC]*dT*d[5mC]*dA*dT*dG*k[5mC]*d[5mC]*kT*dT*kA) [Compound 1198891] | 18
* 1198907 (kT*k[5mC]*dT*dA*dT*dA*dT*dT*dA*dG*dA*kG*dT*kA*dT*kG; antisense) [Compound 1198907] | 74
* 1198493 (antisense kT*kG*d[5mC]*dT*dT*dT*dG*dG*dA*dA*dG*eA*kT*e[5mC]*kT*eG) [Compound 1198493] | 28
* 1198527 (kA*kA*dA*dG*dT*dG*dT*dA*dT*dG*dT*e[5mC]*kA*eG*kA*eA; antisense) [Compound 1198527] | 5
* 1198519 (kG*kT*dA*dA*dT*dA*dT*dT*dG*d[5mC]*dA*eA*kT*e[5mC]*kT*eG; antisense) [Compound 1198519] | 20
* 1198903 (kA*kT*dT*dA*dG*dA*dG*dT*dA*dT*dG*kT*dG*kG*d[5mC]*kA; antisense) [Compound 1198903] | 24
* 1198521 (kA*kT*dG*dT*dA*dA*dT*dA*dT*dT*dG*e[5mC]*kA*eA*kT*e[5mC]; antisense) [Compound 1198521] | 44
* 1095623 (antisense k[5mC]*kA*d[5mC]*dT*dG*dA*dG*dG*dT*dA*dT*eA*kA*e[5mC]*kT*eG) [Compound 1095623] | 57

* * *

- System: Yap1 mRNA
- protocol_details: Antisense inhibition of human Yap1 in A-431 cells by cEt gapmers, single dose (Example 2, RTS4814)
- Format: cell-based
- assay_setup: Table 33; Yap1 mRNA, percent of untreated control; 3-10-3 cEt gapmers targeting SEQ ID NO.: 1, and 2
Strand notation (5' to 3'): a small letter for the sugar, then the base; units joined by * are phosphorothioate-linked, units joined directly phosphodiester-linked; [ ] holds rarer units or linkages, { } end groups; capitals alone tell only the bases. k = constrained ethyl (cEt); [5mC] = 5-methylcytosine; d = 2'-deoxy (DNA)
The threshold is inclusive: YAP1 (% UTC) of exactly 30 % UTC counts as Criterion met; values below receive Criterion not met.

- 1075859 (antisense kA*k[5mC]*kT*dT*dA*dT*d[5mC]*dA*d[5mC]*dT*d[5mC]*dT*dG*k[5mC]*k[5mC]*k[5mC]) [compound 1075859]: Criterion not met
- 1075411 (antisense k[5mC]*kA*kA*dA*dA*dA*dG*dG*dG*dT*dA*dA*dG*kG*k[5mC]*kA) [compound 1075411]: Criterion met
- 1074387 (k[5mC]*k[5mC]*kA*dG*dG*dA*dA*dT*dG*dG*d[5mC]*dT*dT*k[5mC]*kA*kA; antisense) [compound 1074387]: Criterion met
- 1074131 (kG*kG*k[5mC]*d[5mC]*d[5mC]*d[5mC]*dG*d[5mC]*dA*dT*d[5mC]*d[5mC]*d[5mC]*k[5mC]*k[5mC]*kG; antisense) [compound 1074131]: Criterion met
- 1075507 (kG*kT*kA*d[5mC]*dA*dA*d[5mC]*d[5mC]*dT*dA*dG*dT*dG*kA*kT*kA; antisense) [compound 1075507]: Criterion met
- 1074419 (kA*kT*kT*d[5mC]*dT*dT*dT*dA*dG*dA*dG*d[5mC]*d[5mC]*kA*kA*k[5mC]; antisense) [compound 1074419]: Criterion not met
- 1074163 (k[5mC]*kA*kG*dG*d[5mC]*dG*dA*dG*d[5mC]*dG*dA*dG*dG*kG*k[5mC]*kT; antisense) [compound 1074163]: Criterion met

* * *

- Tested on: Yap1 mRNA
- protocol_details: Antisense inhibition of human Yap1 in SNU-449 cells by modified oligonucleotides, single dose (Example 5, RTS36584)
- Type: cell-based
- assay_setup: Table 40 (separate experiment); SNU-449 cells, 10,000 cells per well, free uptake, 2,000 nM oligonucleotide, approx. 48 hours; RTS36584; normalized to RIBOGREEN; Yap1 mRNA relative to untreated control
- Experimental: Modified oligonucleotides with additional chemistry modifications were designed to target a Yap1 nucleic acid and were tested for their effect on Yap1 mRNA level in SNU-449 cells. […] After a treatment period of approximately 48 hours, RNA was isolated from the cells and Yap1 mRNA levels were measured by quantitative real-time RTPCR. […] Yap1 mRNA levels were normalized to total RNA content, as measured by RIBOGREEN®. […]
Strand notation (5' to 3'): a small letter for the sugar, then the base; units joined by * are phosphorothioate-linked, units joined directly phosphodiester-linked; [ ] holds rarer units or linkages, { } end groups; capitals alone tell only the bases. e = 2'-O-(2-methoxyethyl) (MOE); k = constrained ethyl (cEt); [5mC] = 5-methylcytosine; d = 2'-deoxy (DNA)
The threshold is inclusive: YAP1 (% UTC) of exactly 60 % UTC counts as TRUE; values below receive FALSE.

• 1198427 (k[5mC]*dA*dA*d[5mC]*dT*d[5mC]*dT*dT*dA*dT*dA*kT*eG*kG*eT*kT; antisense) [Compound 1198427] = TRUE
• 1198751 (kT*eT*kG*dG*dA*dA*dG*dA*dT*d[5mC]*dT*dG*eA*eA*kA*k[5mC]; antisense) [Compound 1198751] = TRUE
• 1198716 (kA*eA*kT*dT*dG*dT*d[5mC]*dT*d[5mC]*dA*dT*dG*e[5mC]*e[5mC]*kT*kT; antisense) [Compound 1198716] = FALSE
• 1198724 (kA*eG*kA*dG*dT*dA*dT*dG*dT*dG*dG*d[5mC]*eA*eA*kT*kA; antisense) [Compound 1198724] = FALSE
• 1198755 (kT*eG*k[5mC]*dT*dT*dT*dG*dG*dA*dA*dG*dA*eT*e[5mC]*kT*kG) [Compound 1198755] = FALSE
• 1198744 (kA*e[5mC]*kT*dT*dT*dT*dA*d[5mC]*dA*dT*dT*dA*eG*eG*kA*kA; antisense) [Compound 1198744] = TRUE
• 1198730 (kT*eA*kT*dA*dT*dT*dA*dG*dA*dG*dT*dA*eT*eG*kT*kG; antisense) [Compound 1198730] = FALSE
• 1198750 (kG*eG*kA*dA*dG*dA*dT*d[5mC]*dT*dG*dA*dA*eA*e[5mC]*kT*k[5mC]; antisense) [Compound 1198750] = FALSE
• 1198800 (antisense kA*e[5mC]*kT*dA*dA*dG*dT*dA*dA*dG*dG*dT*eT*eT*k[5mC]*k[5mC]) [Compound 1198800] = FALSE
• 1198761 (kT*eT*kT*dA*dG*dG*dA*dT*dG*d[5mC]*dA*dT*eG*eG*kT*kT; antisense) [Compound 1198761] = FALSE
• 1198439 (kA*dG*dT*dG*dT*dA*dT*dG*dT*d[5mC]*dA*kG*eA*kA*eG*kA; antisense) [Compound 1198439] = FALSE
• 1074461 (kG*kA*kA*dA*dT*dT*dG*dT*d[5mC]*dT*d[5mC]*dA*dT*kG*k[5mC]*k[5mC]) [Compound 1074461] = FALSE
• 1198715 (kA*eT*kT*dG*dT*d[5mC]*dT*d[5mC]*dA*dT*dG*d[5mC]*e[5mC]*eT*kT*kA; antisense) [Compound 1198715] = FALSE
• 1198426 (kA*dA*d[5mC]*dT*d[5mC]*dT*dT*dA*dT*dA*dT*kG*eG*kT*eT*kT; antisense) [Compound 1198426] = TRUE
• 1198719 (kG*eG*kA*dA*dA*dT*dT*dG*dT*d[5mC]*dT*d[5mC]*eA*eT*kG*k[5mC]; antisense) [Compound 1198719] = FALSE
• 1198780 (antisense kT*eA*kA*dT*dA*dT*dT*dG*d[5mC]*dA*dA*dT*e[5mC]*eT*kG*kT) [Compound 1198780] = TRUE
